The origin of these recorded values is the NIST ThermoML archive (doi:10.1016/j.jct.2015.02.020).

viscosity reference
Details: 318.15 K; 101.33 kPa; Liquid; Falling or rolling sphere viscometry
All answers are understood in mPa·s, so give the number only.

- Molecule: "CC[n+]1cccc(C)c1.O=S(=O)([N-]S(=O)(=O)C(F)(F)F)C(F)(F)F"
  Measured Value: 19.81
- Molecule: "CC[n+]1ccc(C)cc1.O=S(=O)([N-]S(=O)(=O)C(F)(F)F)C(F)(F)F"
  Measured Value: 17.17
- Molecule: "CC[n+]1ccccc1.O=S(=O)([N-]S(=O)(=O)C(F)(F)F)C(F)(F)F [1-ethylpyridinium bis[(trifluoromethyl)sulfonyl]imide]"
  Measured Value: 21.18

Kindly consider the entry below.
Request: Give the reported value of viscosity for this record: "CC[n+]1ccccc1C.O=S(=O)([N-]S(=O)(=O)C(F)(F)F)C(F)(F)F"
Response: 34.3
